Tested on: Saccharomyces cerevisiae;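 further: PSI is a weighted mean of sequencing reads over stability bins, variants kept only with over 10 reads, mCherry proximal and sfGFP distal, peptide attached via GGGS linker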
Assay Name: protein stability index of tFT-peptide fusion (C-terminal peptide) (PSI (0-1 scale)); higher = more stable (slower turnover)
Experimental Parameters: genetic background: wild type; temperature: 30 C
Classify by measured protein stability index: yes if it is equal to or exceeds 0.7, no if it is smaller.

Dear colleague, could you confirm whether GDFFVSFRCLLL has protein stability index at or above 0.7? no

Check the entry RFICMMYLVYLC : does protein stability index equal or exceed 0.7? no

Hi, just wondering whether RIDLFCVRSSLV shows protein stability index of 0.7 or higher. no

I'd appreciate it if you could say whether GGREWRGGQGEV has protein stability index at least equal to 0.7. no

Please tell me: is the sequence EILGFVFGFFFL at or over 0.7 in terms of protein stability index? no

For this sequence, is measured protein stability index 0.7 or higher? HFQASRLLCEGD no

Decide: protein stability index of GYRSLADSIDLL >= 0.7? yes

In plain terms: is recorded protein stability index at least 0.7 for FCSRVGFVFLRL ? no

// inclusive: protein stability index at least 0.7? input: SFLIADLPSTPP yes

I'd appreciate it if you could say whether PTTVPPGPTSVH has protein stability index at least equal to 0.7. yes

Dear colleague, could you confirm whether GTTDVHLLLECE has protein stability index at or above 0.7? yes

State whether the measured protein stability index reaches 0.7, counting equality as reaching it, for NSKGKKFKCLKK yes

Textbook exercise: given the entry HIPHSKPRTSLP , state whether its protein stability index is greater than or equal to 0.7. yes

Does protein stability index meet or surpass 0.7 for FSRRQLLCLPHP ? no

Is reported protein stability index greater than or equal to 0.7 here: WCGLFCRSVFVV no

Please indicate if the recorded protein stability index for TDFPRDFPPVDL meets or exceeds 0.7. yes

Can GGGGGISGGRWG be said to have protein stability index at or above 0.7? no

Is protein stability index at least 0.7? Consider SSGPPRLPHSRR no

Identify whether the reported protein stability index of the following sequence is 0.7 or greater: RGGGGRGWGSRG no
